# assayed-system: T1, serum resistance-associated protein (SRA) from Trypanosoma brucei rhodesiense, recombinant SRA (SEQ ID NO: … (Trypanosoma brucei rhodesiense, UniProt O96637 31-274))
# T1 construct: also called SRA protein
# T1 sequence: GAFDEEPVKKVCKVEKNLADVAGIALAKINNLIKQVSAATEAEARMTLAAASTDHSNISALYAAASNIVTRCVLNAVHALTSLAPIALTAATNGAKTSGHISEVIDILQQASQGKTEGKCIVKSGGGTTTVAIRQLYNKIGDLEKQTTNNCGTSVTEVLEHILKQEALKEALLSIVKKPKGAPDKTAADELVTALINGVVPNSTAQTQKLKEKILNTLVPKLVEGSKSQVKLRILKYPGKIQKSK
# assay-explanation: SPR, mAb captured, 25C, pH 7.4
recorded-endpoint: kon (M⁻¹ s⁻¹)
Quick reminder: number only, in M⁻¹ s⁻¹, skip the unit.

Query: Quick one: kon of H1H10027P (antibody, V domains shown, Fully human antibody with human IgG1 Fc (prefix H1H)) VH: EVQLVESGGALVQPGRSLTLSCAASGFTFDDYTMHWVRQTPGKGLEWVSGILWNSDNLVYADSVKGRFTISRDNAKNSLYLQMNSLRVEDTALYYCTKEIDYLTLGGNAFDVWGQGTMVTVSS VL: DIQMTQSPSTLSASVGDRITITCRASQNINYWLAWYQQKPGKAPKLLIYKASSLAGGVPSRFSGSGSGTDFTLTINSLQPDDFATYYCQKYNTYSLNFGGGTKVEIK ?
Response: 1.33e+06
